The reader will find reported Cytotoxicity (HepG2) values listed item by item below.
- Tested on: HepG2 cells
- assay.remarks: Mammalian cytotoxicity
- Type: cell-based
measured.attribute: Cytotoxicity (HepG2)

compound: Br.Br.Br.CN[C@@H]1[C@H](O)[C@H](NC)[C@H]2O[C@]3(O)[C@H](O[C@@H]2[C@H]1O)O[C@H](C)C[C@H]3NC(=O)Cc1cc(Cl)c(OC)cn1 [Compound 48]
result: >400 µg/mL
//
compound: Br.Br.Br.CN[C@@H]1[C@H](O)[C@H](NC)[C@H]2O[C@]3(O)[C@H](O[C@@H]2[C@H]1O)O[C@H](C)C[C@H]3NC(=O)Cc1ccc(OC)cn1 [Compound 38]
result: >400 µg/mL
//
compound: CN[C@@H]1[C@H](O)[C@H](NC)[C@H]2O[C@]3(O)[C@H](O[C@@H]2[C@H]1O)O[C@H](C)C[C@H]3NC(=O)Cc1ccc(OC(F)(F)F)cn1.Cl.Cl.Cl [Compound 41]
result: >400 µg/mL
//
compound: Br.Br.Br.CN[C@@H]1[C@H](O)[C@H](NC)[C@H]2O[C@]3(O)[C@H](O[C@@H]2[C@H]1O)O[C@H](C)C[C@H]3NC(=O)Cc1nccc(Cl)c1C [Compound 46]
result: >400 µg/mL
//
compound: Br.Br.Br.CN[C@@H]1[C@H](O)[C@H](NC)[C@H]2O[C@]3(O)[C@H](O[C@@H]2[C@H]1O)O[C@H](C)C[C@H]3NC(=O)Cc1cc(Cl)c(F)cn1 [Compound 49]
result: >400 µg/mL
//
compound: Br.Br.Br.CN[C@@H]1[C@H](O)[C@H](NC)[C@H]2O[C@]3(O)[C@H](O[C@@H]2[C@H]1O)O[C@H](C)C[C@H]3NC(=O)Cc1cc(Cl)c(C)cn1 [Compound 47]
result: >400 µg/mL
//
compound: CN[C@@H]1[C@H](O)[C@H](NC)[C@H]2O[C@]3(O)[C@H](O[C@@H]2[C@H]1O)O[C@H](C)C[C@H]3NC(=O)Cc1ccc(O)cn1.Cl.Cl.Cl [Compound 39]
result: >400 µg/mL
//
compound: Br.Br.Br.CN[C@@H]1[C@H](O)[C@H](NC)[C@H]2O[C@]3(O)[C@H](O[C@@H]2[C@H]1O)O[C@H](C)C[C@H]3NC(=O)Cc1nc2ccccc2[nH]1 [Compound 27]
result: >400 µg/mL

* * *

The reader will find reported Ribosome IC50 values listed item by item below.
- tested.on: UniProtKB A0QSG6
- assay.remarks: Ribosomal translation inhibition
- Assay type: biochemical
- condition.parameters: inhibits luciferase activity by 50%

compound: Br.Br.Br.CNC1C(O)C(NC)C2OC3(O)C(NC(=O)Cc4ccccn4)CC(C)OC3OC2C1O (stereo not drawn)
unit.of.measure: µg/mL
Ribosome IC50: 42.23
//
compound: CNC1C(O)C(NC)C2OC3(O)C(NC(=O)Cc4cc(O)ccn4)CC(C)OC3OC2C1O.Cl.Cl.Cl (stereo not drawn)
unit.of.measure: µg/mL
Ribosome IC50: 0.44
//
compound: Br.Br.Br.CNC1C(O)C(NC)C2OC3(O)C(OC(C)C[C@H]3NC(=O)Cn3ccnc3)OC2C1O (stereo partly drawn)
unit.of.measure: µg/mL
Ribosome IC50: 1.51

* * *

- tested.on: Purified 70S M. smegmatis bacterial ribosomes (Mycolicibacterium smegmatis, UniProt A0QSG6)
- Sequence (A0QSG6 whole entry): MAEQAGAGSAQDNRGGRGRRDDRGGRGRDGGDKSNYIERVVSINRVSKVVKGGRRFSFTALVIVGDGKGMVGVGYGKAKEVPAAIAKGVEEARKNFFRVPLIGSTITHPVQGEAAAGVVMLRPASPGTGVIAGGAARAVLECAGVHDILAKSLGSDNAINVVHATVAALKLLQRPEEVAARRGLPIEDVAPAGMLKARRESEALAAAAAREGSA
- assay.remarks: Ribosomal translation inhibition
- Format: biochemical
- condition.parameters: inhibits luciferase activity by 50%
Entry flag: rule met if Ribosome IC50 reaches 0.9 µg/mL; rule not met if it does not.

compound: Br.Br.Br.CN[C@@H]1[C@H](O)[C@H](NC)[C@H]2O[C@]3(O)[C@H](O[C@@H]2[C@H]1O)O[C@H](C)C[C@H]3NC(=O)Cc1cc(Cl)c(C)cn1
class.label: rule not met

compound: Br.Br.Br.CNC1C(O)C(NC)C2OC3(O)C(NC(=O)Cc4ccc(Br)cn4)CC(C)OC3OC2C1O (centres unmarked)
class.label: rule not met

compound: Br.Br.Br.CN[C@@H]1[C@H](O)[C@H](NC)[C@H]2O[C@]3(O)[C@H](O[C@@H]2[C@H]1O)O[C@H](C)C[C@H]3NC(=O)Cc1nc2ccccc2[nH]1
class.label: rule not met

compound: CN[C@@H]1[C@H](O)[C@H](NC)[C@H]2O[C@]3(O)[C@H](O[C@@H]2[C@H]1O)O[C@H](C)C[C@H]3NC(=O)Cc1ccc(OC(F)(F)F)cn1.Cl.Cl.Cl
class.label: rule met

compound: CNC1C(O)C(NC)C2OC3(O)C(OC(C)C[C@H]3NC(=O)Oc3ccccc3)OC2C1O.Cl.Cl (some centres unmarked)
class.label: rule met

compound: Br.Br.Br.CNC1C(O)C(NC)C2OC3(O)C(OC(C)C[C@H]3NC(=O)Nc3ccccc3)OC2C1O (some centres unmarked)
class.label: rule met

compound: Br.Br.Br.CNC1C(O)C(NC)C2OC3(O)C(NC(=O)Cc4ccc(N)cn4)CC(C)OC3OC2C1O (centres unmarked)
class.label: rule not met

compound: Br.Br.Br.CNC1C(O)C(NC)C2OC3(O)C(NC(=O)Cc4cc(C(C)C)ccn4)CC(C)OC3OC2C1O (centres unmarked)
class.label: rule not met

compound: Br.Br.CNC1C(O)C(NC)C2OC3(O)C(NS(=O)(=O)Cc4ccccc4)CC(C)OC3OC2C1O (centres unmarked)
class.label: rule met

compound: Br.Br.Br.CNC1C(O)C(NC)C2OC3(O)C(NC(=O)Cc4ncccc4C)CC(C)OC3OC2C1O (centres unmarked)
class.label: rule met

compound: Br.Br.Br.CNC1C(O)C(NC)C2OC3(O)C(NC(=O)Cc4csc(N)n4)CC(C)OC3OC2C1O (centres unmarked)
class.label: rule not met

compound: Br.Br.Br.CNC1C(O)C(NC)C2OC3(O)C(OC(C)C[C@H]3NC(=O)Cc3cccc(C)n3)OC2C1O (some centres unmarked)
class.label: rule not met

compound: Br.Br.Br.CNC1C(O)C(NC)C2OC3(O)C(NC(=O)Cc4cc(OC)ccn4)CC(C)OC3OC2C1O (centres unmarked)
class.label: rule not met

* * *

- assay.remarks: Protein binding, human
- Type: in vitro ADME
The reader will find reported Protein binding human values listed item by item below.

mol.smiles: Br.Br.Br.CN[C@@H]1[C@H](O)[C@H](NC)[C@H]2O[C@]3(O)[C@H](O[C@@H]2[C@H]1O)O[C@H](C)C[C@H]3NC(=O)Cc1cc(Cl)c(OC)cn1
unit.of.measure: %
Protein binding human: 61.6
--
mol.smiles: Br.Br.Br.CN[C@@H]1[C@H](O)[C@H](NC)[C@H]2O[C@]3(O)[C@H](O[C@@H]2[C@H]1O)O[C@H](C)C[C@H]3NC(=O)Cc1nc2ccccc2[nH]1
unit.of.measure: %
Protein binding human: 26.3
--
mol.smiles: Br.Br.Br.CN[C@@H]1[C@H](O)[C@H](NC)[C@H]2O[C@]3(O)[C@H](O[C@@H]2[C@H]1O)O[C@H](C)C[C@H]3NC(=O)Cc1cc(Cl)c(C)cn1
unit.of.measure: %
Protein binding human: 43.9
